Task for the reader: assign each of the following molecules its reported pIC50.
pIC50: −log10 of the molar value.

Tested on SARS-CoV-2 M^pro (Severe acute respiratory syndrome coronavirus 2): `Oc1ccc(/C=C/c2cc(O)cc(O)c2)cc1` . Observed pIC50: < 3.89

Kindly note: SARS-CoV-2 M^pro (Severe acute respiratory syndrome coronavirus 2), `Cc1cc(O)c2c(=O)c3c(O)cc(O)c4c5c(O)cc(O)c6c(=O)c7c(O)cc(C)c8c1c2c(c34)c(c78)c65` , pIC50 value reported: 4.20

Recorded pIC50 for `C[S@@+]([O-])CCCCN=C=S` on SARS-CoV-2 M^pro (Severe acute respiratory syndrome coronavirus 2) was < 3.89
